Can you tell me EC50 for the items I'm about to list?
# MEASUREMENT_TARGET: human GcgR (Homo sapiens, UniProt P47871)
# Sequence (P47871 26-477): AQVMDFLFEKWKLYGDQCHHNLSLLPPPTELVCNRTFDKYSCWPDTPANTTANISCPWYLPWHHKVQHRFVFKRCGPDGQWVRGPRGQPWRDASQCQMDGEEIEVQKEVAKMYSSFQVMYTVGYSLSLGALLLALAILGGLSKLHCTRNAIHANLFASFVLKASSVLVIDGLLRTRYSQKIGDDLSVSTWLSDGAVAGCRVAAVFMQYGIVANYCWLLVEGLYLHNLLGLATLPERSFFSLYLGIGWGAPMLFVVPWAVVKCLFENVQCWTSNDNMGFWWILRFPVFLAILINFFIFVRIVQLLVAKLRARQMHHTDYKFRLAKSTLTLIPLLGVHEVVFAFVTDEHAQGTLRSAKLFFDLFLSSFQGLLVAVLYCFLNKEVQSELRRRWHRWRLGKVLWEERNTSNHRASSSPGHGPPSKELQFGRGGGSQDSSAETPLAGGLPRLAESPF
# ASSAY_REMARKS: Functional cAMP activity in the presence of 1% HSA
# Type: cell-based
# CONDITION_INFO: read-out: cAMP Rel EC50, hGcgR
Starred links: 1 amine or outer side, 2 acyl side, 3 side chain; linkers in the order of their positions; H or OH if unused. Non-standard residues stand in square brackets, D forms with d. Groups on a side chain read outwards from the residue. No end group written: not given here. *: point of attachment. C20 diacid = O=C(O)CCCCCCCCCCCCCCCCCCC(=O)*; C18 diacid = O=C(O)CCCCCCCCCCCCCCCCC(=O)*; αMePhe(2-F) = C[C@](N)(Cc1ccccc1F)C(=O)O; γGlu = O=C(O)[C@H](CCC(=O)[*:2])N[*:1]; αMe4Pal = C[C@](N)(Cc1ccncc1)C(=O)O; αMeY = C[C@](N)(Cc1ccc(O)cc1)C(=O)O; 4Pal = N[C@@H](Cc1ccncc1)C(=O)O; αMeL = CC(C)C[C@](C)(N)C(=O)O; αMeS = C[C@](N)(CO)C(=O)O; Orn = NCCC[C@H](N)C(=O)O; AEEA = NCCOCCOCC(=O)O; Aib = CC(C)(N)C(=O)O
Quick note: give the figure in nM, leave out the unit.

Asked: For H-Y[Aib]QGTFTSDFS[Orn][αMeL]LDKK([AEEA-γGlu-C18 diacid])AQ[Aib]AFIEYLLE[Aib]G[4Pal]SSGAPPPSGS-NH2 [Example 242] , write its EC50.
Given back: 484

Asked: Provide one value: measured EC50 of Y[Aib]QGTFTSD[4Pal]S[Orn][αMeL]LDKK([γGlu-γGlu-C18 diacid])AQ[αMe4Pal]AFIE[αMe4Pal]LIE[Aib]GPSSGEPPPSGS-NH2 [Example 989]
Given back: 247

Asked: Given H-Y[Aib]QGT[αMePhe(2-F)]TSD[4Pal][αMeS]I[αMeL]LD[Orn]K([γGlu-γGlu-C18 diacid])AQ[Aib][Orn]FI[dE][αMeY]LTEGGPSSGEPPPSGTE-NH2 [Example 542] , respond with its EC50.
Given back: 256

Asked: Recall and state the measured EC50 for H-Y[Aib]QGTFTSDFSK[αMeL]LDKK([AEEA-γGlu-C20 diacid])AQ[Aib]AFIEYLLAGGPSSGAPPPGGS-NH2 [Example 16] .
Given back: 1660

Asked: Look up and report measured EC50 for this entry: H-Y[Aib]QGTFTSDYSK[αMeL]LDKK([AEEA-γGlu-C20 diacid])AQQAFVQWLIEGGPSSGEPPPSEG-NH2 [Example 315]
Given back: 1560

Asked: Name the recorded EC50 of the item H-Y[Aib]QGTFTSD[4Pal]SQ[αMeL]LD[Orn]K([dE-γGlu-C18 diacid])AQ[αMe4Pal]AFIE[αMeY]LLAGGPSSGAPPPSGSEEE-NH2 [Example 1082] in your answer.
Given back: 1530

====

# MEASUREMENT_TARGET: hGLP-1R (Homo sapiens)
# Sequence (P43220 24-463): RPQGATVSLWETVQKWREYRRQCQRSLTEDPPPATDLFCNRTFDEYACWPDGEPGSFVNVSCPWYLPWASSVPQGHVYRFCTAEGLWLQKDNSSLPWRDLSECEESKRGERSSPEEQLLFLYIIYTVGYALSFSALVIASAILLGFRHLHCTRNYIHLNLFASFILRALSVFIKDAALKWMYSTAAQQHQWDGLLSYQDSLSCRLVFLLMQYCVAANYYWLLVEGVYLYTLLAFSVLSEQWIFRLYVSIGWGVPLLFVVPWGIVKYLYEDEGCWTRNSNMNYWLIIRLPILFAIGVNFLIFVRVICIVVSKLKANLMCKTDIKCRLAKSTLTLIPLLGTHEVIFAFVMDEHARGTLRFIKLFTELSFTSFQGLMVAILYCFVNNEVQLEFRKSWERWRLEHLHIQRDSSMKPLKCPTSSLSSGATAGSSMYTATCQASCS
# ASSAY_REMARKS: Functional cAMP activation in the presence of 0.1% casein (no HSA);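 note: intracellular cAMP rise after 30 min at 37 °C read by HTRF, normalized between buffer only (0%) and maximal control ligand (100%), four-parameter variable-slope fit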
# Type: cell-based
# CONDITION_INFO: in the presence of 0.1% casein (no HSA); geometric mean; read-out: Relative cAMP EC50, hGLP-1R
Starred links: 1 amine or outer side, 2 acyl side, 3 side chain; linkers in the order of their positions; H or OH if unused. Non-standard residues stand in square brackets, D forms with d. Groups on a side chain read outwards from the residue. *: point of attachment. C20 diacid = O=C(O)CCCCCCCCCCCCCCCCCCC(=O)*; C18 diacid = O=C(O)CCCCCCCCCCCCCCCCC(=O)*; αMePhe(2-F) = C[C@](N)(Cc1ccccc1F)C(=O)O; γGlu = O=C(O)[C@H](CCC(=O)[*:2])N[*:1]; αMeY = C[C@](N)(Cc1ccc(O)cc1)C(=O)O; 4Pal = N[C@@H](Cc1ccncc1)C(=O)O; αMeL = CC(C)C[C@](C)(N)C(=O)O; Orn = NCCC[C@H](N)C(=O)O; AEEA = NCCOCCOCC(=O)O; Aib = CC(C)(N)C(=O)O
ENDPOINT_NAME: pEC50
Just the number, please; pEC50 means minus log10 of the concentration in mol/L.

Asked: Using the record for H-Y[Aib]QGTFTSDFS[Orn][αMeL]LDKK([AEEA-AEEA-γGlu-C18 diacid])AQ[Aib]AFIEYLLE[Aib]GHSSGAPPPSGS-NH2 [Example 181] , state its measured pEC50.
Given back: 8.36

Asked: Check the records and state pEC50 for H-Y[Aib]QGTFTSDFS[Orn][αMeL]LDKK([AEEA-γGlu-C18 diacid])AQ[Aib]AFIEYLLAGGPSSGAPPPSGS[AEEA]-NH2 [Example 89]
Given back: 8.48

Asked: Provide only the value of recorded pEC50 for H-Y[Aib]QGTFTSD[4Pal]S[Orn][αMeL]LDKK([γGlu-γGlu-C18 diacid])AQ[Aib]AFIE[αMeY]LLEGGPSSGAPPPSGS-NH2 [Example 942]
Given back: 8.45

Asked: Return reported pEC50. Input substance: H-Y[Aib]QGTFTSDFS[Orn][αMeL]LDKK([AEEA-AEEA-γGlu-C18 diacid])AQ[Aib]AFIEYLLE[Aib]GESSGAPPPSGT-NH2 [Example 180]
Given back: 8.29

Asked: Item H-Y[Aib]QGTFTSDFSK[αMeL]LDKK([AEEA-γGlu-C20 diacid])AQ[Aib]AFIEYLLE[Aib]GPSSGAPPPSGS-NH2 [Example 45] : provide pEC50
Given back: 8.82

Asked: Report pEC50, nothing else, for this substance: H-Y[Aib]QGT[αMePhe(2-F)]TSDYSKLLDKIAQK([AEEA-γGlu-C20 diacid])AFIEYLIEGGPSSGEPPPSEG-NH2 [Example 304]
Given back: 9.26
